B1: VENTX (parent)
chain: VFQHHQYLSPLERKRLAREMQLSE

variants of: B1; test: protein stability index of a GFP-peptide fusion (GPS, HEK-293T) (PSI 1-6); higher = more stable; conditions: c terminus: a fixed tail appended;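 further: lentivirally expressed fusions sorted by FACS into six bins by GFP to DsRed ratio, PSI derived from sequencing read proportions per bin multiplied by bin number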
experimental-readout: protein stability index
The answer should be written as a number, with no unit following it.

Solved entries (count: 3):
{"change": "S23E", "protein stability index": 3.23}
{"change": "R13Y", "protein stability index": 1.77}
{"change": "Y7C", "protein stability index": 2.5}

(Q) What does the record list as protein stability index for R13T ?
(A) 2.32

(Q) How about this variant: L22C
(A) 2.84
